- measured target: Rvs167, P39743
- Sequence (P39743 419-482): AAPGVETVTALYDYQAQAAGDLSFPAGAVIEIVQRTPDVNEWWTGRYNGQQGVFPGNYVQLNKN
- assay summary: SPOT array
- assay context: median of control spots 2707
Label Y when SPOT intensity is strictly below 2; otherwise label N.

Below, 3 binders whose answers are already recorded.
QTREPNEPPPPSPAM
N
NLDRSKISLPDFDDE
N
NPTKSPPPPPSPSTM
Y

For `AAHKTKPSIPPKKVE` , is the recorded SPOT intensity below the cut-off of 2?
Y

For `EVTPKVPERPSRRKT` , is the recorded SPOT intensity below the cut-off of 2?
N

For `RHLKLVPSTPMDIPW` , is the recorded SPOT intensity below the cut-off of 2?
N
